System under test: Complement C1s subcomponent (Homo sapiens)
Method description: complement C1s protease inhibitors, primary screen, biochemical, 10-compound mixtures (AID 538);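 further: 0% = enzyme wells lacking compound mixture and 100% = no-enzyme blank wells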
Setup conditions: purified C1s, fluorogenic AMC substrate, pooled mixtures; screened at 5 µM (by protocol)
Out of some 62,000 compounds screened, about 100 (0.16%) were called active. This excerpt belongs to a sample that is enriched for actives.
Endpoint label: mean inhibition % of two 10-compound mixtures (active compounds read high) (%)
Please reply with the bare figure in % and do not write the unit itself.

Dear colleague, I am looking for the recorded mean inhibition % of two 10-compound mixtures (active compounds read high) of the following molecule: CCOC(=O)CCC(=O)OCC(=O)NC(C)C1CC2CCC1C2 (configuration not stated) -1.13

Now the molecule `Cc1nc(C)c(C(=O)Nc2ccc(C)c(F)c2)o1` 4.8

Quick one: `CCN(Cc1ccncc1)C(=O)c1cccc(S(=O)(=O)N2CCOCC2)c1` 2.16

Again, but for `Cc1nn(-c2ccccc2)c2[nH]c(C(F)(F)F)cc(=O)c12` 1.25

Repeat with CS(=O)(=O)N(C(=O)NC(=O)NC1CCS(=O)(=O)C1)C1CCCCC1 (configuration not stated) -74.3

Can you check `Cc1ccc(Cn2nnc3c(=O)n(CC(=O)N4CCCCC4)cnc32)cc1` next? -35.5

Also need `Cc1nnc(C)n1/N=C/c1ccc(C(C)C)cc1` , thanks. 5.96

And for CC(=O)Nc1ccc(NC(=O)CN2CCCC(C)C2)c(Cl)c1 (configuration not stated) ? 8.18

Now give it for `CCOC(=O)n1c(SCC(=O)N(CC)CC)nc2ccccc21` too. 12.2

What do you get for O=C1CC(c2ccccc2)CC(O)=C1C=NCCN1CCOCC1 (configuration not stated) ? 17.3

And CC(C)c1ccc(OCC(O)Cn2cnc3ccccc32)cc1 (configuration not stated) ? -21.9

Check `O=C(NCCCN1CCOCC1)c1cc(-c2ccc(Cl)cc2)on1` too. 4.71

Now consider `CC(C)n1c(NCc2c[nH]c3ccccc23)nc2ccccc21` and answer again. -7.58

Continue with `C#CC(C)(C)NC(=O)CSc1nc2c(c(=O)n(C)c(=O)n2C)n1CCCC` 1.95

Another molecule: `COc1ccc(CCNC(=O)CN2CCC(n3nnc4cc(F)ccc43)CC2)cc1OC` 2.77

Now consider CCNC(=O)N1CCNC(=O)C1CC(=O)Nc1ccc(C(=O)OCC)cc1 (configuration not stated) and answer again. -35.7

Entry to check: `COc1cccc(OCC(=O)Nc2ccccc2C(N)=O)c1` 16.6

Now consider `CN1CCCc2cc(C#N)c(=O)[nH]c21` and answer again. -74.4

Try this molecule too: `O=c1[nH]nc(CSCc2ccccc2Cl)[nH]1` -7.92

Another molecule: `Cc1c(C(=O)Nc2ccccc2Cl)oc2ccc(S(=O)(=O)N3CCC4(CC3)OCCO4)cc12` -4.62

Now consider COC(=O)C(C)n1cnc2c(nnn2-c2cccc(Cl)c2)c1=O (configuration not stated) and answer again. -40.6

Also, `COC(=O)c1ccccc1NC(=O)CSc1ccccn1` please. -21.1

Also check `C=CCn1c(CC(=O)Nc2cccc(OC)c2)nnc1SCC(=O)NC1CCCCC1` -2.35

How about `COc1ccc(-c2cc3ccc(OCc4nn[nH]n4)cc3oc2=O)cc1` ? -281

Quick one: CCOc1ccccc1C1CC(c2ccccc2)Nc2nc(N)nn21 (configuration not stated) -0.62

Can you handle `N#Cc1cccc(CSc2nnc(CCCO)n2-c2ccccc2)c1` next? -5.26

Repeat for the following molecule: `N#Cc1ccccc1-n1c(N)c(C(=O)N2CCCC2)sc1=S` -0.195

Also `COc1ccc(Cl)cc1NC(=O)c1oc(C)nc1C` , if possible. -7.77

Could you do the same for CCc1cc(Br)ccc1NC(=O)C1CCCO1 (configuration not stated) , please? 4.52

Also `COc1ccc(C)cc1-n1nnnc1SCC(=O)c1cc(C)n(Cc2ccco2)c1C` , if possible. 11.7

Here is the next molecule: `COc1cccc(C(=O)Nc2c3c(nn2-c2cccc(C)c2C)CS(=O)(=O)C3)c1OC` -0.81

Thanks! And CC(C)C(NC(=O)c1cccc(S(=O)(=O)N2CCOCC2)c1)C(=O)NCCc1ccccn1 (configuration not stated) ? -12.8

Proceed to `Cn1c(/C(C#N)=C2/CCCCCN2)nc2ccccc21` -6.22

And what about the molecule COc1ccc(-n2c(SCC(=O)Nc3ccc4c(c3)OCO4)nnc2C(C)N2CCCCC2)cc1 (configuration not stated) ? -12.3

Another molecule: O=C1CC(c2cccc(Br)c2)C2=C(CCCC2=O)N1 (configuration not stated) 17.2

Lookup `CC1(C)CC(=O)C=C(NCc2ccncc2)C1` -4.76

Now this one: O=C(OC1CCOC1=O)c1ccc(-c2nc3ccccc3s2)s1 (configuration not stated) 3.37

Next molecule: `CCCCCOC(=O)NCCOC(=O)Nc1ccc(C(=O)OCC)cc1` 1.11

`Cc1ccc(C(=O)N2CCCCCC2)cc1Br` ? 48.4

Query `COc1ccc(N2C(=O)CN=C2Nc2cccc(C)c2C)cc1OC` next 13.9

Would you kindly repeat that for Cc1cccc(OCC(O)Cn2c(=N)n(CCN3CCOCC3)c3ccccc32)c1 (configuration not stated) ? 3.52

Another: `Nc1nc(SCCOc2ccccc2)n[nH]1` 2.17

Also, `CCC(=O)Nc1cccc(NC(=O)CSc2nnnn2C2CCCC2)c1` please. 2.81

# iterate: `COc1nc(OC)nc(N(C)CCO)n1` -12.5

Likewise for `Cc1nc(C)c(C(=O)Nc2cccc(C)c2C)o1` ? 22

Next molecule: O=C(O)C1CC(=O)N(Cc2cccnc2)C1 (configuration not stated) 5.36

Same question for CC1CN(Cc2nc3c(c(=O)n(C)c(=O)n3C)n2Cc2cccc(Cl)c2)CC(C)O1 (configuration not stated) please. -18.5
